For each entry below, report its Binding (vs wt) value.
target: 4-1BB (coated on ELISA plate) (UniProt Q07011 24-186, limits assumed); test: ELISA, binding/expression ratio relative to WT
Would you mind answering with just the numeric figure?

Problem: Fill blank: measured Binding (vs wt) of the binder 8B10 (ligand, also called 4-1BBL variant 8B10 (phagemid clone, bacterial supernatant)) 4-1BBL variant: ACPWAVSGARASPGSAASPRLREGPELSPDDPAGLLDLRQGMFAQLVAQNVLLIDGPLSWYTDPGLAGVSLTGGLSYKEDTKELVVAKAGVYYVFFQLELRRVVAGMGSGSVSLALHLQPLRSAAGAAALALTVDLPPASSEARNSAFGFQGRLLHLSAGQRLGVHLHTEARARHSWQLTQGATVLGLFRVTPEIPAGLPSPRSE is ____.
Result: 1.52

Problem: Bench note: what Binding (vs wt) did 5D9 (ligand, also called 4-1BBL variant 5D9 (phagemid clone, bacterial supernatant)) 4-1BBL variant: ACPWAVSGARASPGSAASPRLREGPELSPDDPAGLLDLRQGMFAQLVAQNVLLIDGPLSFYSDPGLAGVSLTGGLSYKEDTKELVVAKAGVYYVFFQLELRRVVAGTGSGSVSLALHLQPLRSAAGAAALALTVDLPPASSEARNSAFGFQGRLLHLSAGQRLGVHLHTEARARHAWQMTQGATVLGLFRVTPEIPAGLPSPRSE show?
Result: 1.01

Problem: I would be grateful if you could share the reported Binding (vs wt) for 8E2 (ligand, also called 4-1BBL variant 8E2 (phagemid clone, bacterial supernatant)) 4-1BBL variant: ACPWAVSGARASPGSAASPRLREGPELSPDDPAGLLDLRQGMFAQLVAQNVLLIDGPLSWYPDPGLAGVSLTGGLSYKEDTKELVVAKAGVYYVFFQLELRRVVAFEGSGSVSLALHLQPLRSAAGAAALALTVDLPPASSEARNSAFGFQGRLLHLSAGQRLGVHLHTEARARHSWQLTQGATVLGLFRVTPEIPAGLPSPRSE .
Result: 0.12

The measured values listed here are drawn from patent US20260193315A1.
